# Tested Target: recombinant human COX-2 (Homo sapiens, UniProt P35354)
# Sequence (P35354 18-604): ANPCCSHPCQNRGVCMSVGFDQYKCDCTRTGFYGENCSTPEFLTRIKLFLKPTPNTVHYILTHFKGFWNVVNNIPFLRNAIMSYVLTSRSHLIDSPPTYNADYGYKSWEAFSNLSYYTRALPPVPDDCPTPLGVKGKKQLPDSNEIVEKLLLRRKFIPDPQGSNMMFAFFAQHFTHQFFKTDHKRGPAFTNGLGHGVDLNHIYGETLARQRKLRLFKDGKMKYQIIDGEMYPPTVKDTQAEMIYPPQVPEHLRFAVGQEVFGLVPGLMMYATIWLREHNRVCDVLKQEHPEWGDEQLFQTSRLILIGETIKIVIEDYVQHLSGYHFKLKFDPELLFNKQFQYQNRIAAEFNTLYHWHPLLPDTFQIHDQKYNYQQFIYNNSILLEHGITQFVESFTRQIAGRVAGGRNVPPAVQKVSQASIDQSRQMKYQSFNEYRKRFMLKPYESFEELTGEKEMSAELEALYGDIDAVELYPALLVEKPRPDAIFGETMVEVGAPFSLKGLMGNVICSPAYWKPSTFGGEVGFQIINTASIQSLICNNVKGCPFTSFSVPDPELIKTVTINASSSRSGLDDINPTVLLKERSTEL
# Procedure Summary: COX inhibitor assay (Cayman 700100), COX-2
# Conditions: (COX-1 IC50)/(COX-2 IC50)
Observable: COX-2 SI (selectivity index)

Sample answers from the record:
# Molecule, COX-2 SI (selectivity index)
rows = [
    ("COc1ccc(-c2cn(-c3cc(C)nn3-c3ccc(S(C)(=O)=O)cc3)nn2)cc1 [Compound 19]", ">3.84"),
    ("COc1ccc(-c2cn(-c3cc(-c4ccccc4)nn3-c3ccccc3)nn2)cc1 [Compound 10]", ">6.5"),
    ("Cc1cc(N=[N+]=[N-])n(-c2ccc(S(C)(=O)=O)cc2)n1 [Compound 14]", ">22.7"),
]

Input CS(=O)(=O)c1ccc(-n2nc(-c3ccccc3)cc2-n2cc(-c3ccc(F)cc3)nn2)cc1 [Compound 28] . Output COX-2 SI (selectivity index): >714.2

Input Cc1cc(-n2cc(CC(C)C)nn2)n(-c2ccc(S(C)(=O)=O)cc2)n1 [Compound 23] . Output COX-2 SI (selectivity index): >16.1

The reported COX-2 SI (selectivity index) of the molecule Cc1cc(-n2cc(CN3CCCCC3)nn2)n(-c2ccc(S(C)(=O)=O)cc2)n1 [Compound 25] was >19.2

response.value for Cc1cc(-n2cc(-c3ccc(C(F)(F)F)cc3)nn2)n(-c2ccc(S(C)(=O)=O)cc2)n1 [Compound 22] (field: COX-2 SI (selectivity index)) = >454.5

Input Cc1cc(-n2cc(-c3ccc(Cl)cc3)nn2)n(-c2ccc(S(C)(=O)=O)cc2)n1 [Compound 17] . Output COX-2 SI (selectivity index): >90.9

# molecule Cc1cc(-n2cc(-c3ccc(F)cc3)nn2)n(-c2ccccc2)n1 [Compound 32] ; its COX-2 SI (selectivity index) = 3.7

Entry Cc1cc(-n2cc(CN3CCOCC3)nn2)n(-c2ccc(S(C)(=O)=O)cc2)n1 [Compound 24] , COX-2 SI (selectivity index) reported as >121.9

What the record says about CCc1ccc(-c2cn(-c3cc(-c4ccccc4)nn3-c3ccccc3)nn2)cc1 [Compound 12] : COX-2 SI (selectivity index) is >5.5

For this molecule ( Cc1cc(-n2cc(-c3ccccc3)nn2)n(-c2ccc(S(C)(=O)=O)cc2)n1 [Compound 16] ), measured COX-2 SI (selectivity index) is >10

Record summary for c1ccc(-c2cn(-c3cc(-c4ccccc4)nn3-c3ccccc3)nn2)cc1 [Compound 7] : reported COX-2 SI (selectivity index) = >111.1

Sure, the documented COX-2 SI (selectivity index) for Cc1ccc(-c2cn(-c3cc(-c4ccccc4)nn3-c3ccccc3)nn2)cc1 [Compound 11] is >31.2

Lab book: COX-2 SI (selectivity index) of Cc1ccc(-c2cn(-c3cc(C)nn3-c3ccc(S(C)(=O)=O)cc3)nn2)cc1 [Compound 20] noted as >5.26

Lab book: COX-2 SI (selectivity index) of Fc1ccc(-c2cn(-c3cc(-c4ccccc4)nn3-c3ccccc3)nn2)cc1 [Compound 9] noted as >714.2

In plain terms, [N-]=[N+]=Nc1cc(-c2ccccc2)nn1-c1ccccc1 [Compound 5, 5-azido-1,3-diphenyl-1H-pyrazole] has a documented COX-2 SI (selectivity index) of >5.5

Where do the numbers come from? From paper PMC5431875.
